Target: Prostaglandin E2 receptor EP3 subtype (Homo sapiens) (UniProt P43115)
Sequence (P43115 whole entry): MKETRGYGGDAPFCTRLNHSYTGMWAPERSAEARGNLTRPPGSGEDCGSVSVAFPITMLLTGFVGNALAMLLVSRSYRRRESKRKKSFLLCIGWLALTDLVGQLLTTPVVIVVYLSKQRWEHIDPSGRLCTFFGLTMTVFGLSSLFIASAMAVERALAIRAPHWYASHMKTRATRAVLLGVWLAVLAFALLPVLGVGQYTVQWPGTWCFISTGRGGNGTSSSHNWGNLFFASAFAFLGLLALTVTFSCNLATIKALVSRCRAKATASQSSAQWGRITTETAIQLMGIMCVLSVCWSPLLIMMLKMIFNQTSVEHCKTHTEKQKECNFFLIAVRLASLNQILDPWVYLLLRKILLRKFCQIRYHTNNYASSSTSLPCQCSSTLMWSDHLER
Assay: Ratio of IC50 for human EP3 receptor in presence of 10% human serum to IC50 for human EP3 receptor in buffer
metric: fold change (FC)
Enter the number alone.

CC12CCCC(/C=C/C(=O)NS(=O)(=O)c3ccc(F)c(F)c3)=C1N(Cc1cccc(Cl)c1Cl)C(=O)C2 (stereo not drawn) ... 7.8
CC12CCCC(/C=C/C(=O)NS(=O)(=O)c3ccc(F)c(F)c3)=C1N(Cc1ccc(F)cc1)C(=O)C2 (stereo not drawn) ... 15.9

What does the data say about its fold change (FC)? Entry: COc1cccc(CN2C(=O)CC3(C)CCCC(/C=C/C(=O)NS(=O)(=O)c4cc(F)c(F)cc4F)=C23)c1 (stereo not drawn)
6.2

====

Molecular target: Prostaglandin E2 receptor EP3 subtype (Homo sapiens)
Assay: Ratio of IC50 for human EP3 receptor in presence of 10% human serum to IC50 for human EP3 receptor in buffer
metric: fold change (FC)

CC12CCCC(/C=C/C(=O)NS(=O)(=O)c3cc(Cl)c(Cl)s3)=C1N(Cc1cccc(Cl)c1Cl)C(=O)C2 (stereo not drawn) ... 6.6
CC12CCCC(/C=C/C(=O)NS(=O)(=O)c3ccc(F)c(F)c3)=C1N(Cc1ccc(Cl)cc1Cl)C(=O)C2 (stereo not drawn) ... 18
CC12CCCC(/C=C/C(=O)NS(=O)(=O)c3cc(Cl)c(Cl)s3)=C1N(Cc1cccc(Cl)c1)C(=O)C2 (stereo not drawn) ... 16.3

What does the data say about its fold change (FC)? Entry: COc1cccc(CN2C(=O)CC3(C)CCCC(/C=C/C(=O)NS(=O)(=O)c4cc(F)cc(F)c4)=C23)c1 (stereo not drawn)
62.4

What does the data say about its fold change (FC)? Entry: CC12CCCC(/C=C/C(=O)NS(=O)(=O)c3cc(Cl)c(Cl)s3)=C1N(Cc1cccc(F)c1)C(=O)C2 (stereo not drawn)
8.2

What does the data say about its fold change (FC)? Entry: CC12CCCC(/C=C/C(=O)NS(=O)(=O)c3cc(F)cc(F)c3)=C1N(Cc1ccc(F)cc1)C(=O)C2 (stereo not drawn)
5.4

What does the data say about its fold change (FC)? Entry: CC12CCCC(/C=C/C(=O)NS(=O)(=O)c3cc(Cl)c(Cl)s3)=C1N(Cc1ccc(F)c(F)c1)C(=O)C2 (stereo not drawn)
17.7

What does the data say about its fold change (FC)? Entry: COc1cccc(CN2C(=O)CC3(C)CCCC(/C=C/C(=O)NS(=O)(=O)c4ccc(F)c(F)c4)=C23)c1 (stereo not drawn)
4.2

====

Assay: Metabolic stability in rat liver microsomes after 30 mins
Type: ADME, Microsome
Conditions: read-out: Stability
Output condition met for records whose remaining at 0.5 h is lower than 60%, condition not met for records at or above 60%.

Reference set (2 entries):
CC12CCCC(/C=C/C(=O)NS(=O)(=O)c3cc(Cl)c(Cl)s3)=C1N(Cc1cccc(F)c1)C(=O)C2 (stereo not drawn) ... condition met
COc1cccc(CN2C(=O)CC3(C)CCCC(/C=C/C(=O)NS(=O)(=O)c4ccc(F)c(F)c4)=C23)c1 (stereo not drawn) ... condition met

API: query returns whether the molecule falls strictly under 60% in remaining at 0.5 h. Query: CC12CCCC(/C=C/C(=O)NS(=O)(=O)c3cccs3)=C1N(Cc1ccc(Cl)cc1Cl)C(=O)C2 (stereo not drawn)
condition not met

API: query returns whether the molecule falls strictly under 60% in remaining at 0.5 h. Query: CC12CCCC(/C=C/C(=O)NS(=O)(=O)c3ccc(F)cc3)=C1N(Cc1ccc(Cl)cc1Cl)C(=O)C2 (stereo not drawn)
condition not met

API: query returns whether the molecule falls strictly under 60% in remaining at 0.5 h. Query: CC12CCCC(/C=C/C(=O)NS(=O)(=O)c3cc(Cl)c(Cl)s3)=C1N(Cc1cccc(Cl)c1Cl)C(=O)C2 (stereo not drawn)
condition not met

API: query returns whether the molecule falls strictly under 60% in remaining at 0.5 h. Query: CC12CCCC(/C=C/C(=O)NS(=O)(=O)c3cc(Cl)cc(Cl)c3)=C1N(Cc1ccc(F)c(F)c1)C(=O)C2 (stereo not drawn)
condition met

API: query returns whether the molecule falls strictly under 60% in remaining at 0.5 h. Query: CC12CCCC(/C=C/C(=O)NS(=O)(=O)c3cc(Cl)c(Cl)s3)=C1N(Cc1ccc(F)cc1)C(=O)C2 (stereo not drawn)
condition met
